- System: RXF 393 renal
- measurement_notes: NCI-60 one-dose screen, 48 h
- experimental_setup: 10 µM unless noted
About 83,000 compounds went through this panel and 20% of them were active in at least one assay; those are over-represented in the sample as a whole. The source made the active and inactive calls. The calls were made as follows: active = growth percent below 10; inactive = the rest.
Would you mind answering with one of these outcomes? 1 (active), 0 (inactive)

[[record]]
compound = "O=C1Nc2ccc(F)cc2/C1=C\\c1nc(-c2ccccc2F)n2ccccc12"
discrete_label = 0

[[record]]
compound = "C=CCn1c(SCC(=O)Nc2ccc(C(=O)/C=C/c3cc(OC)c(OC)c(OC)c3)cc2)nnc1-c1cc(-c2ccc(OC)cc2)nc2ccccc12"
discrete_label = 0

[[record]]
compound = "CN(CCC#N)c1ccc(/C=C2\\NC(=O)NC2=O)cc1"
discrete_label = 0

[[record]]
compound = "CCn1cc(CNc2ccc(C(=O)Nc3cc4cc(OC)c(OC)cc4c(C)n3)cc2)c(C)n1"
discrete_label = 0

[[record]]
compound = "Cc1cc2nc3c4ccccc4n(CCN(C)C)c3nc2cc1C"
discrete_label = 1


// param item: CCCn1c(=S)sc2c1nc(C)n1c(Nc3ccccc3)nnc21 ; yields the recorded call
0

Status in this test for CC1=C(C(=O)n2c3ccccc3c3ccccc32)C(c2cccc([N+](=O)[O-])c2)C(C(=O)n2c3ccccc3c3ccccc32)=C(C)N1 ?
0
